biological target: human TLR8 (Homo sapiens, UniProt Q9NR97); test: HEK-Blue hTLR8 reporter cell assay (SEAP, NF-kB/AP-1) for stimulation of human TLR8; conditions: HEK-Blue hTLR8 cells, 24 h incubation, SEAP readout; read-out: TLR8_EC50
Sequence (Q9NR97 27-1041): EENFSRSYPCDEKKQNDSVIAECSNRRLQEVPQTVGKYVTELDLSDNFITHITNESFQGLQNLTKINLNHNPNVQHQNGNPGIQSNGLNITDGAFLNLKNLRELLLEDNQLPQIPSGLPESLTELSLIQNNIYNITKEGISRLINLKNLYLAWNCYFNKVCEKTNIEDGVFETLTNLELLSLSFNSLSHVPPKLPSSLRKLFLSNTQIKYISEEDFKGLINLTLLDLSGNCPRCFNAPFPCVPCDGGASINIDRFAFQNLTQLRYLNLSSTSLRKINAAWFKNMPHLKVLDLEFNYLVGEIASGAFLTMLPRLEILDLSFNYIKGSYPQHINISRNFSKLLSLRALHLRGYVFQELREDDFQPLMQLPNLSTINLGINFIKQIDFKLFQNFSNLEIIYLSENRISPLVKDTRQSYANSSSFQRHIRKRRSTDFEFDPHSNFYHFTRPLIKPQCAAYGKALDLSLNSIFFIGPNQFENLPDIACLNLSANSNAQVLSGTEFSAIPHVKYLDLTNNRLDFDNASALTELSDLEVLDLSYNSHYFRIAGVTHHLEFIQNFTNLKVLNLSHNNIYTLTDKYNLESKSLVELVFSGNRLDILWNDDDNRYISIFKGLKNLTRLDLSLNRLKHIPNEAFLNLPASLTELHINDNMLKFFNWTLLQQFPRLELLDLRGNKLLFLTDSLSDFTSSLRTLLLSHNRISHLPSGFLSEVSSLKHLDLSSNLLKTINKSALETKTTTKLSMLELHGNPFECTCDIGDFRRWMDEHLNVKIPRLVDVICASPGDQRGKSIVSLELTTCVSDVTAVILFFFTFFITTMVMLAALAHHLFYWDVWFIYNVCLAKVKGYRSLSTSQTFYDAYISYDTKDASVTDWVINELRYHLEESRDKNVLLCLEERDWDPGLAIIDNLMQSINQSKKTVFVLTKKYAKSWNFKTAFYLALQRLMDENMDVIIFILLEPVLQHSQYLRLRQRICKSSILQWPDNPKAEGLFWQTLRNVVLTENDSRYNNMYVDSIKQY
Structures can show the parent of a compound that is named as a salt.
experimentalEndpoint: log10(EC50) (log10 of the value in µM)
// stored as log10 of EC50 expressed in µM

Q) Param readout= log10(EC50); system= human TLR8 (Homo sapiens, UniProt Q9NR97); entry= CCCSc1nc2c(N)nnc(OC(C)C)c2n1Cc1ccc(CN)cc1 [Compound 161] ; returns value.
A) -0.40

Q) Param readout= log10(EC50); system= human TLR8 (Homo sapiens, UniProt Q9NR97); entry= CCCCc1nc2c(N)nnc(OC(C)C)c2n1Cc1ccc(CN2CCCC2)cc1 [Compound 101] ; returns value.
A) -0.45

Q) Param readout= log10(EC50); system= human TLR8 (Homo sapiens, UniProt Q9NR97); entry= CCCCc1nc2c(N)nnc(OC(C)C)c2n1Cc1cccc(CN(C)C)c1 [Compound 125] ; returns value.
A) -0.94

Q) Param readout= log10(EC50); system= human TLR8 (Homo sapiens, UniProt Q9NR97); entry= CCCCc1nc2c(N)nnc(N(C)Cc3ccc(C#N)cc3)c2n1C [Compound 45] ; returns value.
A) 0.97

Q) Param readout= log10(EC50); system= human TLR8 (Homo sapiens, UniProt Q9NR97); entry= CCCCc1nc2c(N)nnc(OC(C)C)c2n1Cc1ccc(CNCCOC)cc1 [Compound 104] ; returns value.
A) -0.26

Q) Param readout= log10(EC50); system= human TLR8 (Homo sapiens, UniProt Q9NR97); entry= CCCCCCCCCCNCc1ccc(Cn2c(CCCC)nc3c(N)nnc(OC(C)C)c32)cc1 [Compound 110] ; returns value.
A) 0.45

Q) Param readout= log10(EC50); system= human TLR8 (Homo sapiens, UniProt Q9NR97); entry= CCCCc1nc2c(N)nnc(OC(C)C)c2n1Cc1ccc(CNC(C)C)cc1 [Compound 83, dihydrochloride] ; returns value.
A) -0.20

Q) Param readout= log10(EC50); system= human TLR8 (Homo sapiens, UniProt Q9NR97); entry= CCCCc1nc2c(N)nnc(OC(C)C)c2n1CCCCCCNC1CCOCC1 [Compound 147, dihydrochloride] ; returns value.
A) 0.89

Q) Param readout= log10(EC50); system= human TLR8 (Homo sapiens, UniProt Q9NR97); entry= CCCCc1nc2c(N)nnc(OC(C)C)c2n1Cc1cccc(CNC)c1 [Compound 124] ; returns value.
A) -0.64

Q) Param readout= log10(EC50); system= human TLR8 (Homo sapiens, UniProt Q9NR97); entry= CCCCc1nc2c(N)nnc(OC(C)C)c2n1Cc1ccc(CNC)cc1 [Compound 118] ; returns value.
A) 0.17

Q) Param readout= log10(EC50); system= human TLR8 (Homo sapiens, UniProt Q9NR97); entry= CCCCc1nc2c(N)nnc(NC(C)C)c2n1C [Compound 88] ; returns value.
A) 1.13

Q) Param readout= log10(EC50); system= human TLR8 (Homo sapiens, UniProt Q9NR97); entry= CCCCc1nc2c(N)nnc(N3CCC(c4ccccc4)C3)c2n1C (centres unmarked) [Compound 89] ; returns value.
A) 0.88

Q) Param readout= log10(EC50); system= human TLR8 (Homo sapiens, UniProt Q9NR97); entry= CCCCc1nc2c(N)nnc(OC(C)C)c2n1Cc1cccc(CN)c1 [Compound 33, 2,2,2-trifluoroacetate] ; returns value.
A) -0.47

Q) Param readout= log10(EC50); system= human TLR8 (Homo sapiens, UniProt Q9NR97); entry= CCCCc1nc2c(N)nnc(OC(C)C)c2n1Cc1ccc(CNCCOCCOC)cc1 [Compound 108] ; returns value.
A) 0.15

Q) Param readout= log10(EC50); system= human TLR8 (Homo sapiens, UniProt Q9NR97); entry= CCCCc1nc2c(N)nnc(OC(C)C)c2n1Cc1ccc(CNCCC(=O)OC(C)(C)C)cc1 [Compound 119] ; returns value.
A) 0.33

Reference for the values: patent US12583861B2
